Recorded melting point values for a group of compounds are listed next.

Look at this compound and give its reported melting point. `COc1cc2c(cc1OCc1ccccc1)CCN(Cc1cccc(NS(C)(=O)=O)c1)C2`
132 to 133 °C

###

Overview of recorded GI50 for various compounds
Tested on: DU145 cells
Assay: Antiproliferative assay in DU145 cells, WST-1 cell proliferation assay, 96 hours (GI50)
Assay type: cell-based
Conditions: Homo sapiens, DU-145, 96 hours post-treatment, triplicate

Solved entries:
# item.smiles, GI50
measured = [
    ("COc1cc2c(cc1O)CCN(Cc1cccc(OC)c1OC)C2", "> 100 µM"),
    ("COc1cc2c(cc1O)CCN(Cc1ccccc1OC)C2=O", "> 100 µM"),
    ("COc1cccc(COc2cc3c(cc2OC)C(=O)N(Cc2cccc(OC)c2)CC3)c1", "> 100 µM"),
]

So what's the measured GI50 for this one? `COc1cc2c(cc1OCc1ccccc1)CCN(Cc1ccccc1)C2`
50 to 100 µM

Data request, read-out GI50, for `COc1cc2c(cc1O)CCN(Cc1ccc(OC)c(OC)c1)C2`
> 100 µM

Which measured GI50 value corresponds to `COc1cc(OC)cc(C(=O)N2CCc3cc(OCc4ccccc4)c(OC)cc3C2=O)c1` ?
> 100 µM

Name the reported GI50 value associated with the compound `COc1cccc(S(=O)(=O)N2CCc3cc(OCc4ccccc4)c(OC)cc3C2)c1`
> 100 µM

// query GI50 value for entry `COc1cc2c(cc1O)CCN(C(=O)c1ccccc1OC)C2=O`
< 10 µM

Tell me the measured GI50 of `COc1cc2c(cc1OCc1ccccc1)CCN(Cc1cccc(OC)c1OC)C2` , please.
10 to 50 µM
